Test: Selectivity index, ratio of CTD50 for cytotoxicity against MDCK cells to EC50 for antiviral activity against Influenza A H1N1/pdm09 infected in MDCK cells
Format: toxicity, cell-based
Conditions: dog, read-out: Selectivity Index
measured_attribute: selectivity ratio

Record summary for CCOC1(Br)C(=O)c2c(O)c(Br)c(O)c(Br)c2OC1(Br)c1cc(O)c(O)c(Br)c1 (stereo unspecified) : reported selectivity ratio = 16

----------
Biological target: Urease subunit alpha/Urease subunit beta (Helicobacter pylori (strain ATCC 700392 / 26695) (Campylobacterpylori))
Sequence (P69996 whole entry): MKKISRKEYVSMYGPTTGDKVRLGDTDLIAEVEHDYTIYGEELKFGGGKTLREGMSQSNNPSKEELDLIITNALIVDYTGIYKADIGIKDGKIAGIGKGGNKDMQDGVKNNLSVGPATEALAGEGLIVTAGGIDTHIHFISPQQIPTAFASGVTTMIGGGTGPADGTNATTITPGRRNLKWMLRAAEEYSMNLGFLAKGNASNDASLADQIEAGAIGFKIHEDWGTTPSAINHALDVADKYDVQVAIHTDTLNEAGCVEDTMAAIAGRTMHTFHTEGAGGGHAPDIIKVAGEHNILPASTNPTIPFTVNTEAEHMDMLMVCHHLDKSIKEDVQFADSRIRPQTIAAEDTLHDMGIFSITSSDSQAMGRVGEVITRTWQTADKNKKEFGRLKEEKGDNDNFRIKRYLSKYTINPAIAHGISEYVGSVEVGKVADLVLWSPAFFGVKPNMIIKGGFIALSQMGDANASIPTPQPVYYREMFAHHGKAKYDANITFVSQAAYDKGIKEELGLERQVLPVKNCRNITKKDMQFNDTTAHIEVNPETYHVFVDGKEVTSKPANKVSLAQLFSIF
Sequence (P14916 whole entry, further chain): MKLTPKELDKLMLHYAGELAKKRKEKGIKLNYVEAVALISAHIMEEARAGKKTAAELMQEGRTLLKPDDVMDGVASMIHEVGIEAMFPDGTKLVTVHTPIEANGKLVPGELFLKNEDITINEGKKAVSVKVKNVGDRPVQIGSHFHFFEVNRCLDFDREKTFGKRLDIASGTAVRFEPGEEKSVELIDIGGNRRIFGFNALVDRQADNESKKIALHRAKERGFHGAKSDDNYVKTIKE
Assay: Inhibition of Helicobacter pylori urease assessed as measuring ammonia production incubated for 1.5 hr by indophenol method
measured_attribute: Ki (µM)
# value in µM; strip the unit string

Record summary for O=c1c(O)c(-c2ccc(O)c(O)c2)oc2cc(O)cc(O)c12 [QUERCETIN] : reported Ki = 9.34

----------
Molecular target: UDP-galactopyranose mutase (Mycobacterium tuberculosis) (UniProt P9WIQ1)
Sequence (P9WIQ1 whole entry, looked up): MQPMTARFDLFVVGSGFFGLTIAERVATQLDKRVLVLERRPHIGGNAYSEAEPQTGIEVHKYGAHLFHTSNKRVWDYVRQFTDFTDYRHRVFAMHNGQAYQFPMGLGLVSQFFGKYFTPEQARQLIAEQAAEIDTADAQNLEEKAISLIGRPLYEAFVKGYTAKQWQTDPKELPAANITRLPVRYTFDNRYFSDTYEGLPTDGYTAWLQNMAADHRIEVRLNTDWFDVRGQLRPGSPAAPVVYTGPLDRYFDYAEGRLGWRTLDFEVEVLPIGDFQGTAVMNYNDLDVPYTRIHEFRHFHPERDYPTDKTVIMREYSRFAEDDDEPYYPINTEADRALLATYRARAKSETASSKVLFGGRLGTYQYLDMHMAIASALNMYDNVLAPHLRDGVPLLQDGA
Test: Inhibition of Mycobacterium tuberculosis UGM at 20 uM by HPLC inhibition assay relative to control
Below is a list of entries, each paired with its recorded inhibition value.
Write the figure, then the unit, nothing else.

structure_as_smiles	experimental_system	inhibition
O=c1c(O)c(-c2ccc(O)c(O)c2)oc2c(CN3CCSCC3)c(O)cc(O)c12	UDP-galactopyranose mutase (Mycobacterium tuberculosis) (UniProt P9WIQ1)	57.9%
O=c1c(O)c(-c2ccc(O)c(O)c2)oc2c(CN3CCOCC3)c(O)cc(O)c12	UDP-galactopyranose mutase (Mycobacterium tuberculosis) (UniProt P9WIQ1)	100%
O=c1c(O)c(-c2ccc(O)c(O)c2)oc2c(CN3CCCCC3)c(O)cc(O)c12	UDP-galactopyranose mutase (Mycobacterium tuberculosis) (UniProt P9WIQ1)	23.2%

Alright, here's another molecule for you.
Record summary for O=c1c(O)c(-c2ccc(O)c(O)c2)oc2c(CN3CCCC3)c(O)cc(O)c12 : reported inhibition = 47.8%

----------
Test: Cytotoxicity against MDCK cells assessed as reduction in cell viability incubated for 48 hrs by MTT assay
Assay type: toxicity, cell-based, Canis lupus familiaris
Conditions: dog, read-out: CTD50
measured_attribute: CC50 at 48 h (µg/mL)
# value in µg/mL; strip the unit string

Record summary for CCOC1(Br)C(=O)c2c(O)c(Br)c(O)c(Br)c2OC1(Br)c1cc(O)c(O)c(Br)c1 (stereo unspecified) : reported CC50 at 48 h = 97.7
